- system: PI3K-δ (PI3K(p1108/p857) (h)) (Homo sapiens, UniProt O00329)
- Sequence (O00329 whole entry): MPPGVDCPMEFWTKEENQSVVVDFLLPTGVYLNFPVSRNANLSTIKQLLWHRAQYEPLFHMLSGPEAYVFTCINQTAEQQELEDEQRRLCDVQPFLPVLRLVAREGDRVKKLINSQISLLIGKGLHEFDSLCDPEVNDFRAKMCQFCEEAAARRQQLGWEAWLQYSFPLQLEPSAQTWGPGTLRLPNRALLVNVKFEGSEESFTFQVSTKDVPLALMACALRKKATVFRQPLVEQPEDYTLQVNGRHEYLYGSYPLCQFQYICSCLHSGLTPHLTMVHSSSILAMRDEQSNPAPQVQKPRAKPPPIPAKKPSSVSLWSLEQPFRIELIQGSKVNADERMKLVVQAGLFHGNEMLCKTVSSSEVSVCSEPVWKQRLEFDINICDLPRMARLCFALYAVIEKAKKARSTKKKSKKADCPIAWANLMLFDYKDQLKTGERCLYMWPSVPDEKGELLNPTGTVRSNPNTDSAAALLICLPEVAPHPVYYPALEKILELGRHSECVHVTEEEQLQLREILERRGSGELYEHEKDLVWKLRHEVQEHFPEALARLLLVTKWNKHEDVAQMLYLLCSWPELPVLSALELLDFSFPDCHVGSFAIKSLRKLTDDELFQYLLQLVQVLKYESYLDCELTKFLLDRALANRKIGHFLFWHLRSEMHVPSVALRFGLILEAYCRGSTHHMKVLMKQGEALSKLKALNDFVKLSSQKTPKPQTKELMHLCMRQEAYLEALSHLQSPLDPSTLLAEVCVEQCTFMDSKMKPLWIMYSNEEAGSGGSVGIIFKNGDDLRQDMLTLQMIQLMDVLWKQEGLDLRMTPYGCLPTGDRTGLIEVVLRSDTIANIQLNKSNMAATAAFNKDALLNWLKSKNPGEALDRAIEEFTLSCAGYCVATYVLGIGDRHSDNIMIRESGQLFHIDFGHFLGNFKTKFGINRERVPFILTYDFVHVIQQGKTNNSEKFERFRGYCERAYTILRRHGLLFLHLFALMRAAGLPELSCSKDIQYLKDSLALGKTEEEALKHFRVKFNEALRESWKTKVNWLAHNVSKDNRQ
- Sequence (P27986 whole entry partner): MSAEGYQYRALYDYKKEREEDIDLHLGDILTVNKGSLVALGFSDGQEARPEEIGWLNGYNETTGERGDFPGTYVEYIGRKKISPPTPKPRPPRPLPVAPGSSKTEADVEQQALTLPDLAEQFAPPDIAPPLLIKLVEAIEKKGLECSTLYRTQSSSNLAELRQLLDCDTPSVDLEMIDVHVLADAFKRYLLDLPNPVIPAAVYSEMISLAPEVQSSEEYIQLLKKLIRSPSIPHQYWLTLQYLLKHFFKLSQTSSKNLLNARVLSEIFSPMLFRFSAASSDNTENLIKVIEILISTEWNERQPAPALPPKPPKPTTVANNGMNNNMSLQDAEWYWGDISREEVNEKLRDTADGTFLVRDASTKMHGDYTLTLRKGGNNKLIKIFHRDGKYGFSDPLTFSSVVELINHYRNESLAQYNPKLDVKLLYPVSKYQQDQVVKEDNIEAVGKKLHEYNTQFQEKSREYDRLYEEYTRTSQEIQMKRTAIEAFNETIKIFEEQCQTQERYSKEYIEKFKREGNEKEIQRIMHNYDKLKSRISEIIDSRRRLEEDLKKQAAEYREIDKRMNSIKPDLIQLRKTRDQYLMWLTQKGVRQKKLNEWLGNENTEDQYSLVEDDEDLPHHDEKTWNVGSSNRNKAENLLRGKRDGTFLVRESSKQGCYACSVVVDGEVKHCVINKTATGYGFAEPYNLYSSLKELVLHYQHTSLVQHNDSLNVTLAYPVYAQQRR
- testMethodNotes: Evaluation of inhibitory activity against PI3K-δ (HTRF kinase assay)
- Type: biochemical
- conditions: compound concentration 0.01 μM; read-out: EXP_VALUE(% Inhibition) PI3K-δ 0.01 μM
- Method: <Experimental Example 1> Evaluation of Inhibitory Activity Properties Against PI3K-δ […] A detection buffer comprising Eu (europium)-labelled anti-GST monoclonal antibody, GST-tagged GRP1 PH domain and streptavidin-allophycocyanin was added. A plate was read in a time-resolved fluorescence mode and a homogeneous time-resolved fluorescence (HTRF) signal was determined according to HTRF=10000×(Em 665 nm/Em 620 nm).
outcomeMeasure: inhibition at 0.01 µM (%)

COc1ncc(-c2cccc3c(Cl)c([C@H](C)Nc4ncnc5[nH]ccc(=O)c45)n(-c4ccccc4)c(=O)c23)cc1F :: 94
Cc1c[nH]c2ccc(-c3cccc4c(Cl)c([C@H](C)Nc5ncnc6[nH]ccc(=O)c56)n(-c5ccccc5)c(=O)c34)cc12 :: 65
C[C@H](Nc1ncnc2[nH]ccc(=O)c12)c1c(Cl)c2cccc(B(O)O)c2c(=O)n1-c1ccccc1 :: 84
C[C@H](Nc1ncnc2[nH]ccc(=O)c12)c1c(Cl)c2cccc(-c3cnc(NC4CC4)nc3)c2c(=O)n1-c1ccccc1 :: 106
C[C@H](Nc1ncnc2[nH]ccc(=O)c12)c1c(Cl)c2cccc(-c3ccc(C(N)=O)cc3)c2c(=O)n1-c1ccccc1 :: 110

(P) C[C@H](Nc1ncnc2[nH]ccc(=O)c12)c1c(Cl)c2cccc(-c3cnccn3)c2c(=O)n1-c1ccccc1
(Q) C[C@H](Nc1ncnc2[nH]ccc(=O)c12)c1c(Cl)c2cccc(COCC(C)(C)CO)c2c(=O)n1-c1ccccc1
(R) C[C@H](Nc1ncnc2[nH]ccc(=O)c12)c1c(Cl)c2cccc(N(C)Cc3ccccc3)c2c(=O)n1-c1ccccc1
Given 3 molecules, produce a descending ranking by inhibition at 0.01 µM. Please list each label once, in the requested order.
P, Q, R

(A) COc1cc(-c2cccc3cc([C@H](C)Nc4ncnc5[nH]ccc(=O)c45)n(-c4ccccc4)c(=O)c23)ccc1Cl
(B) C[C@H](Nc1ncnc2[nH]ccc(=O)c12)c1c(Cl)c2cccc(-c3ccc(N)nc3)c2c(=O)n1-c1ccccc1
Field: entry with larger inhibition at 0.01 µM (options A / B ). Response format: the label of the selected entry.
A
